From: patent US6833445B2

Consider the following molecules and their measured IC50 readings.
# MEASURED ON: HIV-1 Rev protein RNA recognition element (RRE)
# MEASUREMENT DESCRIPTION: Fluorescence anisotropy: displacement of fluorescein-labeled Rev peptide from the RRE in solution
# Format: binding
# EXPERIMENTAL SETUP: Fluorescence Anisotropy (Table 4); read-out: IC50 (a) Anisotrophy
MEASURE NAME: IC50 (µM)

INSERT INTO results (molecule, value) VALUES
  ('N=C(N)NCC1OC(OC2C(CO)OC(OC3C(O)C(NC(=N)N)CC(NC(=N)N)C3OC3OC(CO)C(O)C(O)C3NC(=N)N)C2O)C(NC(=N)N)C(O)C1O (stereo not drawn)', 18),
  ('NC[C@@H]1O[C@H](O[C@H]2[C@@H](O)[C@H](O[C@@H]3[C@@H](O)[C@H](N)C[C@H](N)[C@H]3O[C@H]3O[C@H](CO)[C@@H](O)[C@H](O)[C@H]3N)O[C@@H]2CO)[C@H](N)[C@@H](O)[C@@H]1O', 65),
  ('NC[C@H]1O[C@H](O[C@H]2[C@H](O)[C@@H](O[C@H]3O[C@H](CO)[C@@H](O)[C@H](N)[C@H]3O)[C@H](N)C[C@@H]2N)[C@H](N)C[C@@H]1O', 44),
  ('NC(N)=NC[C@@H]1O[C@H](O[C@H]2[C@H](O)[C@@H](O[C@H]3O[C@@H](CO)[C@H](O)[C@@H](N=C(N)N)[C@@H]3O)[C@H](N=C(N)N)C[C@@H]2N=C(N)N)[C@@H](O)[C@H](O)[C@H]1O', 65),
  ('NC[C@@H]1O[C@H](O[C@H]2[C@@H](O)[C@H](O[C@@H]3[C@@H](O)[C@H](N)C[C@H](N)[C@H]3O[C@H]3O[C@H](CN)[C@@H](O)[C@H](O)[C@H]3N)O[C@@H]2CO)[C@H](N)[C@@H](O)[C@@H]1O', 6),
  ('N=C(N)NCC1OC(OC2C(NC(=N)N)CC(NC(=N)N)C(OC3OC(CO)C(O)C(NC(=N)N)C3O)C2O)C(NC(=N)N)C(O)C1O (stereo not drawn)', 3.5);
